tested on: Pseudomonas aeruginosa ATCC 27853; experiment: MIC, broth macrodilution (CLSI), P. aeruginosa ATCC 27853; format: cell-based
Entries and their Minimal Inhibitory Concentration (MIC)

COMPOUND	Minimal Inhibitory Concentration (MIC)
NCCC(OCc1ccc(Cl)cc1)C(=O)NC1CC(N)C(OC2OC(CN)C(OCc3ccc(Cl)cc3)C(OCc3ccc(Cl)cc3)C2OCc2ccc(Cl)cc2)C(OCc2ccc(Cl)cc2)C1OC1OC(COCc2ccc(Cl)cc2)C(OCc2ccc(Cl)cc2)C(N)C1OCc1ccc(Cl)cc1.O=C(O)C(F)(F)F.O=C(O)C(F)(F)F.O=C(O)C(F)(F)F.O=C(O)C(F)(F)F (stereo not shown)	>256 mg/L
NCCC(OC(=O)Nc1ccccc1)C(=O)NC1CC(N)C(OC2OC(CN)C(OC(=O)Nc3ccccc3)C(OC(=O)Nc3ccccc3)C2OC(=O)Nc2ccccc2)C(OC(=O)Nc2ccccc2)C1OC1OC(COC(=O)Nc2ccccc2)C(OC(=O)Nc2ccccc2)C(N)C1OC(=O)Nc1ccccc1.O=C(O)C(F)(F)F.O=C(O)C(F)(F)F.O=C(O)C(F)(F)F.O=C(O)C(F)(F)F (stereo not shown)	>256 mg/L
COCC1OC(OC2C(N)CC(N)C(OC3OC(CN)C(OC)C(OC)C3OC)C2OC)C(OC)C(N)C1OC.O=C(O)C(F)(F)F.O=C(O)C(F)(F)F.O=C(O)C(F)(F)F.O=C(O)C(F)(F)F (stereo not shown)	>256 mg/L
NCCC(OCc1ccccc1)C(=O)NC1CC(N)C(OC2OC(CN)C(OCc3ccccc3)C(OCc3ccccc3)C2OCc2ccccc2)C(OCc2ccccc2)C1OC1OC(COCc2ccccc2)C(OCc2ccccc2)C(N)C1OCc1ccccc1.O=C(O)C(F)(F)F.O=C(O)C(F)(F)F.O=C(O)C(F)(F)F.O=C(O)C(F)(F)F (stereo not shown)	128 mg/L

Origin of measurements: patent US8999942B2
